- Tested on: OVCAR-5
- protocol: NCI tumour cell line growth inhibition, 48 h
The source made the active and inactive calls. Rule as the data show it: active = GI50 up to about 1.1 µM and inactive = higher.
Possible outcomes: active, inactive

compound	label
CCOC1C=CC(=O)C(CO)O1 (centres undefined)	inactive
Cc1csc2nc3c(cnn3C)c(=S)n12	inactive
C/C(=N/c1[nH]c(=O)cc2c1C(=O)CC2)N(C)C	inactive
COc1ccc2c3c1O[C@H]1C(=O)C=CC4(n5[nH]c(=O)n(-c6ccccc6)c5=O)C(C2)N(C)CCC314 (some centres undefined)	inactive
COC(=O)C1(C(C)C)CCc2c(OC)ccc(OC)c2C1=O (centres undefined)	inactive
Cc1cn(C2CC(O)C(Cn3cc(Cn4ncc(=O)[nH]c4=O)nn3)O2)c(=O)[nH]c1=O (centres undefined)	inactive
O=C(CC1(O)C(=O)Nc2ccc([N+](=O)[O-])cc21)c1ccc2ccccc2c1 (centres undefined)	inactive
COc1cc(/C=C2/C(=O)N(C(=O)c3ccccc3O)N=C2C)ccc1O	inactive
O=C1Nc2cc([N+](=O)[O-])ccc2C(=O)N2CCC[C@@H]12	inactive
COc1ccc(OC)c(/C=C(/C#N)c2ccccc2)c1	inactive
COc1ccc(/C=C2\N=C(c3ccccc3)OC2=O)cc1OC(C)=O	inactive
Cc1c2cc[n+](C)cc2c(C)c2c1sc1ccccc12	inactive
CC[C@H](C)[C@H]1NC(=O)[C@@H](NC(=O)[C@@H](CC(C)C)N(C)C(=O)C2CCCN2C(=O)[C@H](C)O)[C@@H](C)OC(=O)[C@H](Cc2ccccc2)N(C)C(=O)[C@@H]2CCCN2C(=O)[C@H](CC(C)C)NC(=O)[C@@H](C)C(=O)[C@H](C(C)C)OC(=O)C[C@@H]1O (some centres undefined)	active
Cc1c(C#N)c2nnn(-c3ccccc3)c(=O)n2c1-c1ccccc1	inactive
COc1cc(C2c3cc4c(cc3[C@@H](Nc3ccc5c(c3)OCCO5)C3COC(=O)[C@H]23)OCO4)cc(OC)c1O (some centres undefined)	inactive
CCCC(=O)NC(Nc1ccc(S(=O)(=O)Nc2ccc(OC)nn2)cc1)(C(F)(F)F)C(F)(F)F	inactive
CCOC(=O)CC/C(=N/Nc1ccc(Cl)cc1[N+](=O)[O-])C(=O)OCC	inactive
N#CC(c1ccccc1)N(CCc1ccccc1)C(=O)c1ccccc1 (centres undefined)	inactive
CCOP(=O)(Nc1ccc(-c2ccccc2)cc1)OCC	inactive
O=C1OC(c2ccccc2)=N/C1=C/NC(Cc1ccc(O)cc1)C(=O)O (centres undefined)	inactive
Sc1nnc(COc2ccc(Cl)cc2Cl)[nH]1	inactive
Nc1c(C(=O)N/N=C/c2ccc(Cl)cc2)sc(=S)n1-c1ccccc1	inactive
Cn1c(=O)oc2cc(C(=S)N3CCC(Cc4ccccc4)CC3)ccc21	inactive
CCN(CC)CCO/N=C1/C=C2CCC3C(CC[C@@]4(C)C3CC[C@]4(C)O)[C@@]2(C)CC1 (some centres undefined)	inactive
